Reported kon by item:
# target: T1, human-CD40-monomer protein (human, UniProt P25942 21-193, limits assumed)
# T1 construct: Soluble monomer generated in house, used as SPR analyte; also called hCD40; hCD40-monomer
# T1 sequence (P25942 21-193 limits assumed): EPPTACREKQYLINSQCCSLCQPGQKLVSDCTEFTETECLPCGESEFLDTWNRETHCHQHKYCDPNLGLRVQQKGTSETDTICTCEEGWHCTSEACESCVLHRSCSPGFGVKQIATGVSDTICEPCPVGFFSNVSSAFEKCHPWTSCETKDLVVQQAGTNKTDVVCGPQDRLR
# test.summary: SPR, Ab captured on protein A, hCD40 monomer 500 and 50 nM, 1:1 fit; supernatant

binder	kon
Y12XX-hz40-P238K (antibody, human IgG1, kappa, V domains shown, also called Vh-hz12;Vk-hz3) VH: QVQLVQSGAEVKKPGSSVKVSCKASGYAFTSYWMHWVRQAPGQGLEWMGQINPSQGRSQYNEKFKTRVTITADKSTSTAYMELSSLRSEDTAVYYCARWGLQPFAYWGQGTLVTVSS VL: EIVMTQSPATLSVSPGERATLSCKASQDVSTAVAWYQQKPGQAPRLLIYSASYRYTGIPARFSGSGSGTEFTLTISSLQSEDFAVYYCQQHYSTPWTFGGGTKVEIKR	240000 M⁻¹ s⁻¹
Y12XX-hz26 (antibody, human IgG1, kappa, V domains shown, Humanized, IgG1-P238K; supernatant sample) VH: QVQLVQSGAEVKKPGSSVKVSCKASGYAFTSYWMHWVRQAPGQGLEWMGQINPSQGRSQYNEKFKTRVTITADKSTSTAYMELSSLRSEDTAVYYCARWGLQPFAYWGQGTLVTVSS VL: DIQMTQSPSFLSASVGDRVTITCKASQDVSTAVAWYQQKPGKAPKLLIYSASYRYTGVPSRFSGSGSGTDFTLTISSLQPEDFATYYCQQHYSTPWTFGGGTKVEIKR	160000 M⁻¹ s⁻¹
Y12XX-hz38 (antibody, human IgG1, kappa, V domains shown, Humanized, IgG1-P238K; supernatant sample) VH: QVQLVQSGAEVKKPGSSVKVSCKASGYAFTSYWMHWVRQRPGQGLEWMGQINPSNGRSQYNEKFKTRVTITADKSTSTAYMELSSLRSEDTAVYYCARWGLQPFAYWGQGTLVTVSS VL: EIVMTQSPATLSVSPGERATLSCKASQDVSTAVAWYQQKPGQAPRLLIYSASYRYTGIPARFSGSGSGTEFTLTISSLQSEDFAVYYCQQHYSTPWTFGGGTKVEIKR	250000 M⁻¹ s⁻¹
